Values were extracted from PubChem BioAssay (NCI).

# Test system: OVCAR-3 ovarian
# measurement-protocol: NCI tumour cell line growth inhibition, 48 h
TGI values, listed per item
Give the quantity in µM, number only.

[
  {
    "molecule": "COc1ccc2c(c1)O/C(=C\\c1cccc(OCC(=O)Nc3nc4c(s3)CCCC4)c1)C2=O",
    "unit-info": "µM",
    "TGI": 7.63
  }
]

Could you now consider this next molecule?
Problem: Consider the molecule `Cc1[c-]onc1C.Cc1[c-]onc1C.[Ag].[Ag].[NH-]S(=O)(=O)c1ccc(N=Nc2cc(N=Nc3ccc(S([NH-])(=O)=O)cc3)c3c(NC(=O)C(Cl)Cl)cccc3c2OC(=O)C(Cl)Cl)cc1` and give its measured TGI.
Result: 15.8
